Assayed target: hTRPV1 (Homo sapiens, UniProt Q8NER1)
Sequence (Q8NER1 whole entry): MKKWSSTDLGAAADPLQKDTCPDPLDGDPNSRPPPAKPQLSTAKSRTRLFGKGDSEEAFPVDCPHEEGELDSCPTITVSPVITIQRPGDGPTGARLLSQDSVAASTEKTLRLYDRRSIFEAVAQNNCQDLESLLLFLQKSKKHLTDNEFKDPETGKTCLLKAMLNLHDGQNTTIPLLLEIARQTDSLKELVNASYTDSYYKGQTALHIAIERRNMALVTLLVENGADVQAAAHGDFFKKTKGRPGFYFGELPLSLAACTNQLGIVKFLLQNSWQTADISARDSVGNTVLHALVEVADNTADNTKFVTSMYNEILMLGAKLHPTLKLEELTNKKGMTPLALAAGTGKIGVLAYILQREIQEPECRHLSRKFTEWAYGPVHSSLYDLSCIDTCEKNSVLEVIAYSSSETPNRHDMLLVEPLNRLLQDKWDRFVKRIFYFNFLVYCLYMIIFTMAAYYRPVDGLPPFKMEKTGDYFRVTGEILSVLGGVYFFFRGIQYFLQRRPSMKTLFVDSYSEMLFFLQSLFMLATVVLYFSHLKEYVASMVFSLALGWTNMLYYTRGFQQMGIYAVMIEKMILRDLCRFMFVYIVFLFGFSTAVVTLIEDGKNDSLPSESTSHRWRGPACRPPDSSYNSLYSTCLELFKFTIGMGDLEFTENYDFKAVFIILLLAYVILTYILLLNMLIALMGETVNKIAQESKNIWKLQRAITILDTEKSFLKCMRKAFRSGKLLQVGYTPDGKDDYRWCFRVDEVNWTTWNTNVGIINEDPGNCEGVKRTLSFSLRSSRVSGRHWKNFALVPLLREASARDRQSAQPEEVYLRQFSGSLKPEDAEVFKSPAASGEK
Assay text: whole-cell patch-clamp, SB-366791 inhibition of pH 5-induced current, wild-type hTRPV1
Format: cell-based
Parameters: we used the same wild-type full-length construct to determine the hTRPV1 structure; expressed in transfected cells; host or cells: HEK293T ΔPIEZO1 cells, pIRES-EGFP plasmid
Protocol conditions: WT; response to reviewers; read-out: inhibition by SB-366791, IC50

Compound: COc1cccc(NC(=O)/C=C/c2ccc(Cl)cc2)c1 [SB-366791, N-(3-methoxyphenyl)−4-chlorocinnamide]
IC50 [nM]: 21

###

Assayed target: hTRPV1 (Homo sapiens, UniProt Q8NER1)
Assay text: whole-cell patch-clamp, SB-366791 inhibition of pH 5-induced current, wild-type hTRPV1
Format: cell-based
Set-up: we used the same wild-type full-length construct to determine the hTRPV1 structure; expressed in transfected cells; host or cells: HEK293T ΔPIEZO1 cells, pIRES-EGFP plasmid
Protocol conditions: wild-type; pH 5; +80 mV; mean ± SEM, n = 7; read-out: IC50 of SB-366791
pIC50: −log10 of the molar value.
Value kind: pIC50

Compound: COc1cccc(NC(=O)/C=C/c2ccc(Cl)cc2)c1 [SB-366791, N-(3-methoxyphenyl)−4-chlorocinnamide]
Recorded value: 7.68
